Reference source for all entries: patent US20150322129A1

Molecular target: human glucagon receptor (human, UniProt P47871 26-477)
Sequence (P47871 26-477): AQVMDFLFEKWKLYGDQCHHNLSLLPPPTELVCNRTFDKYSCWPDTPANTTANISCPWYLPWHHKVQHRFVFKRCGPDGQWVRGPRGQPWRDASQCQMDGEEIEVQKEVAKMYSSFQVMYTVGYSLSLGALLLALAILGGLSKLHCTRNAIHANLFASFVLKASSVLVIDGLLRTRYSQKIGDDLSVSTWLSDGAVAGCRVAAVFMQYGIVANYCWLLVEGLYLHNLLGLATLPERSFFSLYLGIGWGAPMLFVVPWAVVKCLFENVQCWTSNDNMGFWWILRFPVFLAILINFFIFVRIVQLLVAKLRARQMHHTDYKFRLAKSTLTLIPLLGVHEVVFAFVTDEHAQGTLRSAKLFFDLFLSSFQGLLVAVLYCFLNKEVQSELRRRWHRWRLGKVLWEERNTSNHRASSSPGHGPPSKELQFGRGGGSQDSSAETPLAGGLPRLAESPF
Assay: cell-based or functional assay
Numbered stars: 1 amine (or outer) side, 2 acyl side, 3 side chain; on linkers, the order of the positions; unused ones are H or OH. Square brackets hold non-standard residues; d marks the D form. Side chains are listed from the residue outwards. Ends that are not written are not given here. * marks the point of attachment. γGlu = O=C(O)[C@H](CCC(=O)[*:2])N[*:1]; Palmitoyl = CCCCCCCCCCCCCCCC(=O)*; Aib = CC(C)(N)C(=O)O
result.type: EC50 hGlucagon-R (cAMP formation)

> print(dat)
                                     binder  value.reported
1  H[Aib]HGTFTSDLSKQK([γGlu-γGlu-Palmitoyl])EEEAVRLFIEWLKAGGPSSGAPPPS-NH2 [SEQ ID NO: 11]          8.9 pM

## Input Which EC50 hGlucagon-R (cAMP formation) reading was recorded for the binder H[dS]HGTFTSDLSKQK([γGlu-γGlu-Palmitoyl])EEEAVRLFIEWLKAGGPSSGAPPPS-NH2 [SEQ ID NO: 13] ?
## Output 22.5 pM

## Input Consider the binder shown here: H[dS]HGTFTSDLSKQK(Ac)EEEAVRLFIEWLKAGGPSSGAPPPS-NH2 [SEQ ID NO: 35] What is its recorded EC50 hGlucagon-R (cAMP formation)?
## Output 2860 pM
